# Test system: HS 578T breast
# assay_remarks: NCI tumour cell line growth inhibition, 48 h; in the data active = GI50 below about 0.43 µM; inactive = the rest
Outcome codes: active, inactive

>  <molecule>
NC(=O)c1ccccc1Nc1ccc2nnc(-c3ccncc3)n2n1

>  <label>
inactive

$$$$
>  <molecule>
COc1ccc(C(=O)/C=C/c2cccc([N+](=O)[O-])c2)c(OC)c1

>  <label>
inactive

$$$$
>  <molecule>
Cc1ccc(C(CC(=O)c2ccccc2)C2C(=O)NC(=O)NC2=O)cc1 (stereo not drawn)

>  <label>
inactive

$$$$
>  <molecule>
COc1cc2c(cc1O)CC[C@@H]1[C@@H]2CC[C@]2(C)[C@@H](OCCN(C)C)CC[C@@H]12

>  <label>
inactive

$$$$
>  <molecule>
COc1cccc(-n2nc(C)c3c(N/N=C(\C)c4ccncc4)ncnc32)c1

>  <label>
inactive

$$$$
>  <molecule>
O=C(Nc1cccc(-n2cc(-c3ccncc3)c(-c3cc(O)cc(Cl)c3)n2)c1)Nc1ccc(Cl)c(C(F)(F)F)c1

>  <label>
inactive

$$$$
>  <molecule>
COc1cccc2c1ccc1nc3cccc(C(=O)N[C@H](C)CN(C)C)c3nc12

>  <label>
active

$$$$
>  <molecule>
COC1/C=C/C(C)C(C(C)C(OC)C(C)CCC(=O)C(C)C(C/C=C/N(C)C=O)OC)OC(=O)/C=C/C=C(\C)CC(OC)CC2=CC(=O)O[C@H](C2)C(C)C(OC)CC(OC)/C=C/C(C)C(OC)C1 (stereo partly drawn)

>  <label>
active

$$$$

====

# Tested on: A549 NSCLC
# assay_remarks: NCI tumour cell line growth inhibition, 48 h
Listed below: TGI values for each entry.

>  <compound>
COc1ccc2c(c1)[n+]([O-])c(-c1ccc(OC)c(OC)c1)c(N)[n+]2[O-]

>  <TGI>
> 100 µM

$$$$
>  <compound>
Cc1nn(-c2ccccc2)c(C)c1/C=N/N=C1\SCC(=O)N1c1ccccc1

>  <TGI>
99.6 µM

$$$$
>  <compound>
O=CN/C=C/c1cccc(O)c1

>  <TGI>
79.7 µM

$$$$
>  <compound>
COc1cc2c3c(n(CCCCN)c(=O)c2cc1OC)-c1cc2c(cc1C3=O)OCO2

>  <TGI>
11.9 µM

$$$$
>  <compound>
COc1ccc(C2CC(C)(O)Oc3cc4c(cc32)OCO4)cc1 (stereo unspecified)

>  <TGI>
> 100 µM

$$$$
>  <compound>
O=c1cccccc1[O-].O=c1cccccc1[O-].[O]=[U+2]=[O]

>  <TGI>
> 100 µM

$$$$
>  <compound>
COC(=O)CC1NC(=O)[C@@H]1C(C)O (stereo partly specified)

>  <TGI>
> 100 µM

$$$$
>  <compound>
CCOC(=O)c1nc2ccccc2nc1NCc1cc(OC)c(OC)c(OC)c1

>  <TGI>
> 100 µM

$$$$
>  <compound>
Cc1ccc(N(C(=O)Nc2ccccc2)C2=NCC(C)S2)cc1C (stereo unspecified)

>  <TGI>
> 100 µM

$$$$
>  <compound>
COc1ccc(CC(=O)N2CCC3(C)CC(=O)CC=C23)cc1OC (stereo unspecified)

>  <TGI>
> 100 µM

$$$$
>  <compound>
Cc1ccc(-c2nc(C#N)c(S(=O)(=O)n3nc(C)cc3N)o2)cc1

>  <TGI>
39.8 µM

$$$$

Cited source: PubChem BioAssay (NCI)
